Origin of measurements: patent US20130164256A1

# test-target: Rhesus/Macaque TNF (Rhesus/Macaque, UniProt P48094 77-233)
# Sequence (P48094 77-233 limits assumed): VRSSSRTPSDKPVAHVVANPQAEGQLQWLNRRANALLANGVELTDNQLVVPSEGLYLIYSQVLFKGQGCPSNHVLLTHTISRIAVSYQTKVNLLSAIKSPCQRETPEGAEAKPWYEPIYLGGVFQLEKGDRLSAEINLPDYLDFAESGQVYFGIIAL
# protocol-text: cell-based or functional assay
Lab note: compare rhesus TNF neutralization IC50 with 0.03 nM, writing YES if less and NO if equal or more.

binder	class-name
hMAK199-AM4 (antibody, V domains shown) VH: EVQLVQSGAEVKKPGASVKVSCKASGYTFNNYGIIWVRQAPGQGLEWMGWINTYTGKPTYAQKFQGRVTMTTDTSTSTAYMELSSLRSEDTAVYYCARKLFNTVAVTDNAMDYWGQGTTVTVSS VL: DIQMTQSPSSLSASVGDRVTITCRASQDIENYLNWYQQKPGKAPKLLIYYTSRLQSGVPSRFSGSGSGTDFTLTISSLQPEDFATYFCQQGNTQPPTFGQGTKLEIK	YES
hMAK199-AM3 (antibody, V domains shown) VH: EVQLVQSGAEVKKPGASVKVSCKASGYTFNNYGIIWVRQAPGQGLEWMGWINTYTGVPTYAQKFQGRVTMTTDTSTSTAYMELSSLRSEDTAVYYCARKLFNTVDVTDNAMDYWGQGTTVTVSS VL: DIQMTQSPSSLSASVGDRVTITCRASQDIYNYLNWYQQKPGKAPKLLIYYTSRLQSGVPSRFSGSGSGTDYTLTISSLQPEDFATYFCQQGNTQPPTFGQGTKLEIK	YES
hMAK199-AM6 (antibody, V domains shown) VH: EVQLVQSGAEVKKPGASVKVSCKASGYTFNNYGINWVRQAPGQGLEWMGWINTYTGKPTYAQKFQGRVTMTTDTSTSTAYMELSSLRSEDTAVYFCARKFRNTVAVTDYAMDYWGQGTTVTVSS VL: DIQMTQSPSSLSASVGDRVTITCRASQDIYDVLNWYQQKPGKAPKLLIYYASRLQSGVPSRFSGSGSGTDFTLTISSLQPEDFATYYCQQGITLPPTFGQGTKLEIK	YES
hMAK199-AM5 (antibody, V domains shown) VH: EVQLVQSGAEVKKPGASVKVSCKASGYTFRNYGIIWVRQAPGQGLEWMGWINTYTGKPTYAQKFQGRVTMTTDTSTSTAYMELSSLRSEDTAVYFCARKLFTTVDVTDNAMDYWGQGTTVTVSS VL: DIQMTQSPSSLSASVGDRVTITCRASQDISNYLNWYQQKPGKAPKLLIYYTSRLQSGVPSRFSGSGSGTDYTLTISSLQPEDFATYFCQQGNTWPPTFGQGTKLEIK	YES
hMAK199-AM10 (antibody, V domains shown) VH: EVQLVQSGAEVKKPGASVKVSCKASGYTFNNYGIIWVRQAPGQGLEWMGWINTYSGKPTYAQKFQGRVTMTTDTSTSTAYMELSSLRSEDTAVYFCARKLFTTMDVTDNAMDYWGQGTTVTVSS VL: DIQMTQSPSSLSASVGDRVTITCRASQDISNFLNWYQQKPGKAPKLLIYYTSRLQSGVPSRFSGSGSGTDYTLTISSLQPEDFATYFCQQGNTQPPTFGQGTKLEIK	NO
hMAK199-AM9 (antibody, V domains shown) VH: EVQLVQSGAEVKKPGASVKVSCKASGYTFSNYGINWVRQAPGQGLEWMGWINTYTGQPSYAQKFQGRVTMTTDTSTSTAYMELSSLRSEDTAVYYCARKLFKTEAVTDYAMDYWGQGTTVTVSS VL: DIQMTQSPSSLSASVGDRVTITCRASQNIYNVLNWYQQKPGKAPKLLIYYASRLQSGVPSRFSGSGSGTDFTLTISSLQPEDFATYFCQQGNTMPPTFGQGTKLEIK	NO
hMAK199-AM2 (antibody, V domains shown) VH: EVQLVQSGAEVKKPGASVKVSCKASGYTFNNYGIIWVRQAPGQGLEWMGWINTYTGKPTYAQKLQGRVTMTTDTSTSTAYMELSSLRSEDTAVYFCARKLFNTVDVTDNAMDYWGQGTTVTVSS VL: DIQMTQSPSSLSASVGDRVTITCRASQDISNYLNWYQQKPGKAPKLLIYYTSRLQSGVPSRFSGSGSGTDYTLTISSLQPEDFATYFCQQGNSWPPTFGQGTKLEIK	YES
hMAK199-AM1 (antibody, V domains shown, scFv clone J662M2S3#10 converted to full length IgG; HC plasmid pHybE-hCg1,z,non-a V2 (human IgG1), LC plasmid pHybE-hCk V3 (human kappa); also called J662M2S3#10) VH: EVQLVQSGAEVKKPGASVKVSCKASGYTFANYGIIWVRQAPGQGLEWMGWINTYTGKPTYAQKFQGRVTMTTDTSTSTAYMELSSLRSEDTAVYYCARKLFTTMDVTDNAMDYWGQGTTVTVSS VL: DIQMTQSPSSLSASVGDRVTITCRASQDISQYLNWYQQKPGKAPKLLIYYTSRLQSGVPSRFSGSGSGTDFTLTISSLQPEDFATYFCQQGNTWPPTFGQGTKLEIK	YES
hMAK199-AM8 (antibody, V domains shown, scFv clone J662M2S3#45 converted to full length IgG; HC plasmid pHybE-hCg1,z,non-a V2 (human IgG1), LC plasmid pHybE-hCk V3 (human kappa); also called J662M2S3#45) VH: EVQLVQSGAEVKKPGASVKVSCKASGYTFANYGIIWVRQAPGQGLEWMGWINTYTGKPTYAQKFQGRVTMTTDTSTSTAYMELSSLRSEDTAVYYCARKLFTTMDVTDNAMDYWGQGTTVTVSS VL: DIQMTQSPSSLSASVGDRVTITCRASQDISQYLNWYQQKPGKAPKLLIYYTSRLQSGVPSRFSGSGSGTDFTLTISSLQPEDFATYFCQQGNTWPPTFGQGTKLEIK	NO
hMAK199-AM7 (antibody, V domains shown) VH: EVQLVQSGAEVKKPGASVKVSCKASGYTFRNYGITWVRQAPGQGLEWMGWINTYTGKPTYAQKFQGRVTMTTDTSTSTAYMELSSLRSEDTAVYFCARKLFTTMDVTDNAMDYWGQGTTVTVSS VL: DIQMTQSPSSLSASVGDRVTITCRASQDISNYLNWYQQKPGKAPKLLIYYTSRLQSGVPSRFSGSGSGTDYTLTISSLQPEDFATYFCQQGNTWPPTFGQGTKLEIK	NO
